target: T1, CD3 epsilon homodimer protein (UniProt P07766 23-126); experiment: SPR, antibody over immobilised CD3e homodimer;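 note: SPR at 25 °C with CD3 epsilon homodimer amine-coupled to a CM4 sensor chip and antibody flowed over as analyte in HBS-EP+ running buffer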
T1 construct: also called CD3 (CD3 epsilon)
T1 sequence (P07766 23-126): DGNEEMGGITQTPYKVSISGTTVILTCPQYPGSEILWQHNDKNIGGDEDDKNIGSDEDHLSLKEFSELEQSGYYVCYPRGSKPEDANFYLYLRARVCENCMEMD
MEASURED ENDPOINT: KD ratio to GLS3000
Answers are plain numbers.

As a guide, the following entries are already answered.
BINDER: CE115HA000/GLS3000 L33M (antibody, IgG1, name in Kabat numbering, V domains shown, one-arm IgG1) VH: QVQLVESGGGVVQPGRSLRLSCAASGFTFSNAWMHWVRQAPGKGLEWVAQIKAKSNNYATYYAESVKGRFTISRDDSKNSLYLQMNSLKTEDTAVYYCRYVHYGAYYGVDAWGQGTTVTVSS VL: DIVMTQSPLSLPVTPGEPASISCRSSQSLVHSNRNTYMHWYQQKPGQAPRLLIYKVSNRFSGVPDRFSGSGSGTDFTLKISRVEAEDVGVYYCGQGTQVPYTFGQGTKLEIK
KD ratio to GLS3000: 0.9
--
BINDER: CE115HA000/GLS3000 N30I (antibody, IgG1, name in Kabat numbering, V domains shown, one-arm IgG1) VH: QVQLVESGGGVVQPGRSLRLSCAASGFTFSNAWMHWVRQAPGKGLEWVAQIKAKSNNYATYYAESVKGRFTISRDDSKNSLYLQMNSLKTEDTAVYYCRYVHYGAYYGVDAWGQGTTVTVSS VL: DIVMTQSPLSLPVTPGEPASISCRSSQSLVHSNRITYLHWYQQKPGQAPRLLIYKVSNRFSGVPDRFSGSGSGTDFTLKISRVEAEDVGVYYCGQGTQVPYTFGQGTKLEIK
KD ratio to GLS3000: 1.24

What does the data say about its KD ratio to GLS3000? Entry: CE115HA000/GLS3000 G89E (antibody, IgG1, name in Kabat numbering, V domains shown, one-arm IgG1) VH: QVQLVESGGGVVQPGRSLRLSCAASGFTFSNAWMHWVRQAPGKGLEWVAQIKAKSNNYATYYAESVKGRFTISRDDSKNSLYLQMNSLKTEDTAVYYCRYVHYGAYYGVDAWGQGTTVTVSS VL: DIVMTQSPLSLPVTPGEPASISCRSSQSLVHSNRNTYLHWYQQKPGQAPRLLIYKVSNRFSGVPDRFSGSGSGTDFTLKISRVEAEDVGVYYCEQGTQVPYTFGQGTKLEIK 34.6
